This collection of values is drawn from paper PMC10385743.

test: Cytotoxicity in Huh5-2 replicon cells (intracellular ATP levels); conditions: human
EXPERIMENTAL ENDPOINT: CC50 at 72 h

[
  {
    "COMPOUND": "O=C(CN1C(=O)N(Cc2ccccc2)C2(CCCCC2c2ccccc2)C1=O)NO (stereo not shown)",
    "ASSAY VALUE": "9.37 µM"
  }
]

Input: Find the recorded CC50 at 72 h belonging to CCN1C(=O)N(CC(=O)NO)C(=O)C12CCC(c1ccccc1)CC2 (stereo not shown) and report it.
Output: 10.6 µM

Input: Next: O=C(CN1C(=O)N(Cc2ccccc2)C2(CCC(c3ccccc3)CC2)C1=O)NO (stereo not shown)
Output: > 10 µM

====

system: DENV serotype 2 (strain 16681) subgenomic replicon; test: microbe, parasite or virus in culture; type: cell-based, dengue virus; settings: 72 h; luciferase; mean ± SD; read-out: Huh7-D2 (DENV-2 Replicon) EC50
EXPERIMENTAL ENDPOINT: EC50

Input: Find the recorded EC50 belonging to CC1CCC2(NC(=O)N(CC(=O)NO)C2=O)c2ccccc21 (stereo not shown) [Compound 35] and report it.
Output: > 10 µM

====

test: Cytotoxicity against cultured L6 cells (resazurin); conditions: rat, L6 rat skeletal myoblast cells, L6 Cells CC50, mean of triplicate experiments ± SEM
EXPERIMENTAL ENDPOINT: CC50 at 6 days (µM)
Quick reminder: number only, in µM, skip the unit.

Here's what some known entries look like.
[
  {
    "COMPOUND": "CCN1C(=O)N(CC(=O)NO)C(=O)C12CCC(c1ccccc1)CC2 (stereo not shown)",
    "CC50 at 6 days, µM": 54.3
  },
  {
    "COMPOUND": "O=C(CN1C(=O)N(Cc2ccccc2)C2(CCCCC2c2ccccc2)C1=O)NO (stereo not shown)",
    "CC50 at 6 days, µM": 11.9
  },
  {
    "COMPOUND": "CN1C(=O)N(CC(=O)NO)C(=O)C12CCCCC2c1ccccc1 (stereo not shown)",
    "CC50 at 6 days, µM": 217
  },
  {
    "COMPOUND": "CN1C(=O)N(CC(=O)NO)C(=O)C12CCC(c1ccccc1)CC2 (stereo not shown)",
    "CC50 at 6 days, µM": 21.7
  },
  {
    "COMPOUND": "CC(C(=O)NO)N1C(=O)N(C)C2(CCC(c3ccccc3)CC2)C1=O (stereo not shown)",
    "CC50 at 6 days, µM": 90.5
  },
  {
    "COMPOUND": "O=C(CN1C(=O)NC2(CCC(c3ccccc3)CC2)C1=O)NO (stereo not shown)",
    "CC50 at 6 days, µM": 60.8
  }
]

# input for lookup
Input: Find the recorded CC50 at 6 days belonging to O=C(CN1C(=O)N(Cc2ccccc2)C2(CCC(c3ccccc3)CC2)C1=O)NO (stereo not shown) and report it.
Output: 3.98

====

test system: bloodstream form T. b. brucei (strain 221); conditions: selectivity index
Rule: SI (CC50 for L6 cells / EC50 for T. brucei) of 400 or more gives class 1; anything lower gives class 0.

Examples with answers:
[
  {
    "MOLECULE": "CC(C(=O)NO)N1C(=O)NC2(CCC(c3ccccc3)CC2)C1=O (stereo not drawn)",
    "GROUP LABEL": "class 0"
  },
  {
    "MOLECULE": "CC(C(=O)NO)N1C(=O)N(C)C2(CCC(c3ccccc3)CC2)C1=O (stereo not drawn)",
    "GROUP LABEL": "class 1"
  },
  {
    "MOLECULE": "O=C(CN1C(=O)NC2(CCC(c3ccccc3)CC2)C1=O)NO (stereo not drawn)",
    "GROUP LABEL": "class 0"
  }
]

Input: Entry O=C(CN1C(=O)NC2(CCCCC2c2ccccc2)C1=O)NO (stereo not drawn) : is its SI (CC50 for L6 cells / EC50 for T. brucei) no less than 400?
Output: class 0

Input: Next: CCN1C(=O)N(CC(=O)NO)C(=O)C12CCC(c1ccccc1)CC2 (stereo not drawn)
Output: class 1
